# TESTED_SYSTEM: Cannabinoid receptor 1 (Mus musculus)
# Sequence (P47746 whole entry): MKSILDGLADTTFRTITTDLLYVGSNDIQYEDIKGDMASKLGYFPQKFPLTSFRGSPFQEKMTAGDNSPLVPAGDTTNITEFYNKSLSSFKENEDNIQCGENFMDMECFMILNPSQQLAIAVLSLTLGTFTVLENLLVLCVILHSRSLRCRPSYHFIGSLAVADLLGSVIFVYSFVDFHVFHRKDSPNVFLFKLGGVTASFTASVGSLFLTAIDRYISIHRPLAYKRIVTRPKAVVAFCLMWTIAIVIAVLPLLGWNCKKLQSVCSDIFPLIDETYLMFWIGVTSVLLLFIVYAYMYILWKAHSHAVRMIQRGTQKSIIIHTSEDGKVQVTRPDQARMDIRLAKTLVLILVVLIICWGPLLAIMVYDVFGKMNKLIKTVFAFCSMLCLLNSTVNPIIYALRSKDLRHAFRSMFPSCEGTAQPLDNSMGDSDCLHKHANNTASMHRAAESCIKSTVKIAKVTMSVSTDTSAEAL
# EXPERIMENT: Agonist activity at MF1 mouse brain CB1 receptor assessed as induction of [35S]GTPgammaS binding after 60 mins by liquid scintillation counting
I'd be grateful if you could share measured pEC50 for these entries.
Numbers only, as −log10 of the molar value.

Provide the reported pEC50 of each entry below, same order.
1. CCCCCCc1ccc(O)cc1OCCCCCCCCCCC(=O)OC(CO)CO
2. CCCCCCC(C)(C)c1cc(O)cc(OCCCCCCCCCCC(=O)OC(CO)CO)c1
3. CCCCCCC(C)(C)c1ccc([C@@H]2C[C@H](O)CC[C@H]2CCCO)c(O)c1

Ans:
7.11
8.20
7.38
